system: HeLa cells; experiment: Potentiation Factor (PF50): MMS growth inhibition, SRB assay; assay type: cell-based; conditions: MMS 0-10 μg/ml, PARP inhibitor at 30 nM, ratio IC50 control / IC50 + inhibitor
Criterion: PF50 (30 nM) strictly under 3. Met: 1. Not met: -1.

Field: below-cutoff. Rule: recorded PF50 (30 nM) strictly less than 3. Subject: CCOC1CCN(C(=O)c2cc(F)cc(Cc3n[nH]c(=O)c4cccc(Cl)c34)c2)CC1 [Compound 129a] 1

Confirm or reject: PF50 (30 nM) of COCCOC1CCN(C(=O)c2cc(Cc3n[nH]c(=O)c4ccccc34)ccc2F)CC1 [Compound 7] lies strictly below 3 -1

Record O=C(c1cc(Cc2n[nH]c(=O)c3ccccc23)ccc1F)N1CCC(OCc2ccccc2)CC1 [Compound 8e] : is its PF50 (30 nM) strictly below 3? 1

For this molecule, is PF50 (30 nM) lower than 3? O=C(c1cc(Cc2n[nH]c(=O)c3ccccc23)ccn1)N1CCC(Oc2ccncc2)CC1 [Compound 6e] 1

Threshold test, PF50 (30 nM) < 3: N#CCc1ccc(OC2CCN(C(=O)c3cc(Cc4n[nH]c(=O)c5ccccc45)ccc3F)CC2)cc1 [Compound 8f] -1

Problem: For the molecule COC1CCN(C(=O)c2cc(Cc3n[nH]c(=O)c4cccc(N)c34)ccc2F)CC1 [Compound 46] , is PF50 (30 nM) under 3? -1

For COc1ccc(OC2CCN(C(=O)c3cc(Cc4n[nH]c(=O)c5ccccc45)ccc3F)CC2)cc1 [Compound 8b] , is the recorded PF50 (30 nM) below the cut-off of 3? -1
